B1: TRIM55 (parent)
chain: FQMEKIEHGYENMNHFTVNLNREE

variants of: B1; test: protein stability index of a GFP-peptide fusion (GPS, HEK-293T) (PSI 1-6); higher = more stable; conditions: c terminus: a fixed tail appended;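 further: lentivirally expressed fusions sorted by FACS into six bins by GFP to DsRed ratio, PSI derived from sequencing read proportions per bin multiplied by bin number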
Would you mind classing the entries by protein stability index? Ranges: c1: < 2; c2: ≥ 2 and < 3; c3: ≥ 3

* R22V | c2
* N21A | c2
* E23I | c1
* L20G | c3
* F1H | c3
* E4M | c1
* E11K | c2
* N12I | c1
